Target Entity: WT hERG1 (Homo sapiens, UniProt Q12809)
Sequence (Q12809 whole entry): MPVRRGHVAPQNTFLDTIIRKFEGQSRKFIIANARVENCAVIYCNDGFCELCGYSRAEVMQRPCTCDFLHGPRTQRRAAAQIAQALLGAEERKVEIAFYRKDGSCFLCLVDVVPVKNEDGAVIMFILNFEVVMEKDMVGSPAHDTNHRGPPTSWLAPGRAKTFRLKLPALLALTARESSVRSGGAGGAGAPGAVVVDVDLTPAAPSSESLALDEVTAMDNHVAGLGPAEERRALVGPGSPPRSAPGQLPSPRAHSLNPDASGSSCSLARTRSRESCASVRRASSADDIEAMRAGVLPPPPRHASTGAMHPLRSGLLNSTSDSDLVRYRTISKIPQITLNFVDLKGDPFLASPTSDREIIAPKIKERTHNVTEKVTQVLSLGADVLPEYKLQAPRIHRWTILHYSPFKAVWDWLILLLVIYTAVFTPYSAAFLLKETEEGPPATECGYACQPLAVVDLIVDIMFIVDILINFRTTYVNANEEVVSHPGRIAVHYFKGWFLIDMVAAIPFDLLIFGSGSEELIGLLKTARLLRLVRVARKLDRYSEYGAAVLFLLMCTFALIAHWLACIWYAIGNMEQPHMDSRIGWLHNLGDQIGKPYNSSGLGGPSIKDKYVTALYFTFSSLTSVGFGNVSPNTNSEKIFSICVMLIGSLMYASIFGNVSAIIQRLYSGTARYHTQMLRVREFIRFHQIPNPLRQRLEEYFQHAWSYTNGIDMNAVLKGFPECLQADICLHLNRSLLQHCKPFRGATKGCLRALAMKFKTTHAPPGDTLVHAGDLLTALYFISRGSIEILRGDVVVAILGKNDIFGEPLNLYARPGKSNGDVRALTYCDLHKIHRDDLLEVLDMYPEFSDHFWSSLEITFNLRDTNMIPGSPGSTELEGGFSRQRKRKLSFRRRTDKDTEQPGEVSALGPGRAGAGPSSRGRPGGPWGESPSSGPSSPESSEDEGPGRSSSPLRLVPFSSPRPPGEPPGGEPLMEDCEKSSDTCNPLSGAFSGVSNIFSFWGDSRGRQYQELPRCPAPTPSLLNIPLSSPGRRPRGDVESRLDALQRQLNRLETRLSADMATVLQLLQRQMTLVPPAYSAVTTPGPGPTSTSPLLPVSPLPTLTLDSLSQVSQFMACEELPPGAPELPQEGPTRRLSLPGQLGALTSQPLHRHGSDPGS
Measurement Notes: cell-based
Cond: IC50 for block (Hill fit), WT, HEK 293 cells, Figure 7A
Observation Type: IC50 (µM)

smiles_string=COc1cc2c(cc1OC)CC(=O)N(CCCN(C)C[C@H]1Cc3cc(OC)c(OC)cc31)CC2 reported_measurement=6.8

----------
Target Entity: WT hERG1 (Homo sapiens)
Measurement Notes: cell-based
Cond: IC50 for block of hERG1, WT, applied extracellularly, HEK 293 cells, tail currents, room temperature
pIC50: −log10 of the molar value.
Observation Type: pIC50

molecule="COc1cc2c(cc1OC)CC(=O)N(CCCN(C)C[C@H]1Cc3cc(OC)c(OC)cc31)CC2 [ivabradine]" observation_type=pIC50 reported_measurement=5.17

----------
Target Entity: F656C hERG1 (Homo sapiens, UniProt Q12809, F656C)
Sequence (Q12809 whole entry F656C): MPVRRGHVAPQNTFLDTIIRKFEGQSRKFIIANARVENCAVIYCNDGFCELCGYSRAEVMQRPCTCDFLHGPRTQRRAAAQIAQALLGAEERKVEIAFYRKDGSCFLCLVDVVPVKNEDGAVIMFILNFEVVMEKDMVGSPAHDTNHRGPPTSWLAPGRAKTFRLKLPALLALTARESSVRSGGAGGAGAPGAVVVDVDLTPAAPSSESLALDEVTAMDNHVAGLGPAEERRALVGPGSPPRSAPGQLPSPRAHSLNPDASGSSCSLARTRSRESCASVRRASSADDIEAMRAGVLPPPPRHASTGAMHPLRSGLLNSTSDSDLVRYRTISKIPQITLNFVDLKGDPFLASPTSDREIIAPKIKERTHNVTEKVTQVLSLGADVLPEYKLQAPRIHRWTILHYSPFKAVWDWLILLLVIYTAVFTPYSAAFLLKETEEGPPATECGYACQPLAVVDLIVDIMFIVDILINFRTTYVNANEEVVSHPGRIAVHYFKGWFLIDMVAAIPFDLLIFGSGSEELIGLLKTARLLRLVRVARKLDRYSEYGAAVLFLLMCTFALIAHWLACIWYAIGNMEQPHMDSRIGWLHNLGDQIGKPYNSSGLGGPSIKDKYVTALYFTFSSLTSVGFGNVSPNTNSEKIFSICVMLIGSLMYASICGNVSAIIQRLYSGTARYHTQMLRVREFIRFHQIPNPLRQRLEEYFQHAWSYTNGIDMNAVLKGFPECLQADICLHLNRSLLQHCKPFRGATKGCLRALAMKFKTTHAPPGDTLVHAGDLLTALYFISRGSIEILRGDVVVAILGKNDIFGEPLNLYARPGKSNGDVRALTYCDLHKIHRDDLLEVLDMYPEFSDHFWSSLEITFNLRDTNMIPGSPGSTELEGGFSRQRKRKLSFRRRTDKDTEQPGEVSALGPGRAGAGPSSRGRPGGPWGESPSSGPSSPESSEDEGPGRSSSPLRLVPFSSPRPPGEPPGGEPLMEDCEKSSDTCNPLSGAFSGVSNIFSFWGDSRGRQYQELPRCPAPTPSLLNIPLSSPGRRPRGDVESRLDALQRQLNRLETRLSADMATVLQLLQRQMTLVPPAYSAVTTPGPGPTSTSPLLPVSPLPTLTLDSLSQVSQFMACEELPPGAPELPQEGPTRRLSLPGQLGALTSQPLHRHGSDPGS
Measurement Notes: whole-cell patch-clamp of hERG1 tail currents, F656C mutant
pIC50: −log10 of the molar value.
Observation Type: pIC50

smiles_string=COc1cc2c(cc1OC)CC(=O)N(CCCN(C)C[C@H]1Cc3cc(OC)c(OC)cc31)CC2 target_entity="F656C hERG1 (Homo sapiens, UniProt Q12809, F656C)" observation_type=pIC50 reported_measurement=4.35

Data origin, for the record: paper PMC7338687
